Quick list: pIC50 per entry.
- assayed_system: Programmed cell death protein 1/Programmed cell death 1 ligand 1 (Homo sapiens, UniProt Q9NZQ7)
- Sequence (Q15116 whole entry): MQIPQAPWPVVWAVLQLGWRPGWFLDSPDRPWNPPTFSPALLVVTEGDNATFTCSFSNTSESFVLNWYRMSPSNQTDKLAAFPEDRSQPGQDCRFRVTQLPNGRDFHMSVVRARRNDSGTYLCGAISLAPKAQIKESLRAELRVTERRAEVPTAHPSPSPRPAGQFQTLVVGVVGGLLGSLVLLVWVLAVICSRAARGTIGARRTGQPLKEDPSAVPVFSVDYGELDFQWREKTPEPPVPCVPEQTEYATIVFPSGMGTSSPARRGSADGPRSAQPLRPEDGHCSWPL
- Sequence (Q9NZQ7 whole entry): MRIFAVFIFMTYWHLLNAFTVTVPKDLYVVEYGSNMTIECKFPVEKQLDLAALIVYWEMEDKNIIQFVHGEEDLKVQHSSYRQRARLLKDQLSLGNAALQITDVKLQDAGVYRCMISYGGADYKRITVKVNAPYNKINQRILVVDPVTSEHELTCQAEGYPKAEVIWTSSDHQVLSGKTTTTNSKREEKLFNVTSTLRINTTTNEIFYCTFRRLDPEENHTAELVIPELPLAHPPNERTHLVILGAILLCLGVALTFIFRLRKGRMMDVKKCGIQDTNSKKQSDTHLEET
- protocol_details: Inhibition of human PD1/PDL1 protein-protein interaction by HTRF assay
- Format: protein-complex assay
Schema: pIC50 number; meaning minus log10 of the concentration expressed in molar units.

Take a look at these entries with their results.
> print(dat)
                              smiles.record  readout.number
1  Cc1c(COc2cc(OCc3cccc(C#N)c3)c(CN[C@@H](C(=O)O)[C@H](C)O)cc2Cl)cccc1-c1ccccc1            8.07
2  Cc1c(COc2cc(OCc3cccc(C#N)c3)c(CN3C[C@@H](O)C[C@@H]3CO)cc2Cl)cccc1-c1ccc2c(c1)OCCO2            7.95

Q: Need pIC50 of CC(=O)N1CCN(Cc2cc(Cl)c(OCc3cccc(-c4ccc5c(c4)OCCO5)c3C)cc2OCc2cccc(C#N)c2)CC1 , thanks.
Result: 6.39

###

- Tested on: MCF7
- protocol_details: Cytotoxicity against human MCF7 cells assessed as reduction in cell viability measured after 48 hrs by MTT assay
- Type: functional, cell-based
- conditions: MCF7, 48 h
pIC50: −log10 of the molar value.
Quick list: pIC50 per entry.

Take a look at these entries with their results.
> print(dat)
                              smiles.record  result
1  Cc1c(COc2cc(OCc3cccc(C#N)c3)c(CN[C@H](CO)C(=O)O)cc2Cl)cccc1-c1ccccc1  < 5.00
2  Cc1c(COc2cc(OCc3cccc(C#N)c3)c(CNC(C)(C)C(=O)O)cc2Cl)cccc1-c1ccccc1  < 5.00

Next, consider the following compound.
Q: Need pIC50 of Cc1c(COc2cc(OCc3cccc(C#N)c3)c(CN3CC[C@H](C(=O)O)C3)cc2Cl)cccc1-c1ccc2c(c1)OCCO2 , thanks.
Result: < 5.00

###

- assayed_system: Programmed cell death protein 1/Programmed cell death 1 ligand 1 (Homo sapiens)
- protocol_details: Inhibition of human PD1/PDL1 protein-protein interaction by HTRF assay
- Assay type: protein-complex assay
pIC50: −log10 of the molar value.
parameter_measured: pIC50

Take a look at these entries with their results.
> print(dat)
                              smiles.record  result
1  Cc1c(COc2cc(OCc3cccc(C#N)c3)c(CN3CC(O)C3)cc2Cl)cccc1-c1ccc2c(c1)OCCO2    7.52
2  Cc1c(COc2cc(OCc3cccc(C#N)c3)c(CN3CC[C@@H](C(=O)O)C3)cc2Cl)cccc1-c1ccc2c(c1)OCCO2    7.82
3  Cc1c(COc2cc(OCc3cccc(C#N)c3)c(CN3C[C@@H](O)C[C@H]3C(=O)O)cc2Cl)cccc1-c1cncnc1  < 7.00

Q: Need pIC50 of CC(=O)N1CCN(Cc2ccc(O)c(C(=O)/C=C/c3cccc(-c4ccccc4)c3F)c2)CC1 , thanks.
Result: < 4.70

Q: Same question for Cc1c(/C=C/C(=O)c2cc(CN3CCN(C4CC4)CC3)ccc2O)cccc1-c1ccccc1 please.
Result: < 4.70

###

- assayed_system: Programmed cell death protein 1/Programmed cell death 1 ligand 1 (Homo sapiens)
- protocol_details: Inhibition of human PD1/PDL1 protein-protein interaction by HTRF assay
- Format: protein-complex assay
pIC50: −log10 of the molar value.
parameter_measured: pIC50

> print(dat)
                              smiles.record        result
1  Cc1c(COc2cc(OCc3cccc(C#N)c3)c(CN3CC[C@H](C(=O)O)C3)cc2Cl)cccc1-c1ccccc1  7.00 to 8.00

Q: Give recorded pIC50 with Programmed cell death protein 1/Programmed cell death 1 ligand 1 (Homo sapiens) for the following compound: Cc1c(COc2cc(OCc3cccc(C#N)c3)c(CN3CC[C@@H](O)C3)cc2Cl)cccc1-c1ccccc1
Result: 7.00 to 8.00

Q: Same question for Cc1c(COc2cc(OCc3cccc(C#N)c3)c(CN[C@@H](CO)C(=O)O)cc2Cl)cccc1-c1ccncc1 please.
Result: < 7.00

Q: Same question for Cc1c(COc2ccc3cc(CN4C[C@@H](O)C[C@H]4C(=O)O)ccc3c2)cccc1-c1ccccc1 please.
Result: < 5.00

Q: Same question for Cc1c(COc2ccc3cc(CNCCN)ccc3c2)cccc1-c1ccccc1 please.
Result: < 5.00

###

Quick list: pIC50 per entry.
- assayed_system: Programmed cell death protein 1/Programmed cell death 1 ligand 1 (Homo sapiens, UniProt Q9NZQ7)
- protocol_details: Inhibition of human PD1/PDL1 protein-protein interaction by HTRF assay
- Type: protein-complex assay
pIC50: −log10 of the molar value.

> print(dat)
                              smiles.record  result
1  CC(=O)N1CCN(Cc2ccc3oc(-c4cccc(-c5ccccc5)c4C)cc(=O)c3c2)CC1  < 5.00
2  Cc1c(COc2cc(OCc3cccc(C#N)c3)c(CN3CCN(C(C)C)CC3)cc2Cl)cccc1-c1ccc2c(c1)OCCO2  < 6.00

Q: Need pIC50 of Cc1c(COc2cc(OCc3cccc(C#N)c3)c(CNC(C)(C)C(=O)O)cc2Cl)cccc1-c1ccc2c(c1)OCCO2 , thanks.
Result: 7.60

Q: Same question for Cc1c(COc2cc(OCc3cccc(C#N)c3)c(CN[C@H](C(=O)O)[C@@H](C)O)cc2Cl)cccc1-c1ccccc1 please.
Result: 8.05

Q: Same question for Cc1c(COc2cc(OCc3cccc(C#N)c3)c(CNCC(=O)O)cc2Cl)cccc1-c1ccc2c(c1)OCCO2 please.
Result: < 7.00

Q: Same question for Cc1c(-c2ccccc2)cccc1-c1cc(=O)c2cc(CN3CCN(CC4CC4)CC3)ccc2o1 please.
Result: < 5.00

Q: Same question for Cc1c(COc2cc(OCc3cccc(C#N)c3)c(CN3CC[C@@H](C(=O)O)C3)cc2Cl)cccc1-c1ccccc1 please.
Result: 7.00 to 8.00

Q: Same question for CC(=O)N1CCN(Cc2ccc3oc(-c4cccc(-c5ccccc5)c4F)cc(=O)c3c2)CC1 please.
Result: < 5.00

Q: Same question for Cc1c(/C=C/C(=O)c2cc(CN3CCNCC3)ccc2O)cccc1-c1ccccc1 please.
Result: < 4.70

Q: Same question for Cc1c(COc2ccc3cc(CN[C@@H](CO)C(=O)O)ccc3c2)cccc1-c1ccc2c(c1)OCCO2 please.
Result: < 5.00

###

Quick list: pIC50 per entry.
- assayed_system: Programmed cell death protein 1/Programmed cell death 1 ligand 1 (Homo sapiens, UniProt Q9NZQ7)
- protocol_details: Inhibition of human PD1/PDL1 protein-protein interaction by HTRF assay
- Assay type: protein-complex assay
pIC50: −log10 of the molar value.

> print(dat)
                              smiles.record  parameter.measured  result
1  Cc1c(COc2cc(OCc3cccc(C#N)c3)c(CN3C[C@@H](O)C[C@H]3C(=O)O)cc2Cl)cccc1-c1ccncc1               pIC50  < 7.00
2  Cc1c(COc2cc(OCc3cccc(C#N)c3)c(CN3CC(C)(O)C3)cc2Cl)cccc1-c1ccccc1               pIC50  < 7.00

Next, consider the following compound.
Q: Need pIC50 of Cc1c(COc2cc(OCc3cccc(C#N)c3)c(CN3CCN(CC4CC4)CC3)cc2Cl)cccc1-c1ccc2c(c1)OCCO2 , thanks.
Result: < 6.00

###

- assayed_system: Programmed cell death protein 1/Programmed cell death 1 ligand 1 (Homo sapiens, UniProt Q9NZQ7)
- protocol_details: Inhibition of human PD1/PDL1 protein-protein interaction by HTRF assay
- Assay type: protein-complex assay
Quick list: IC50 per entry.

Q: Need IC50 of Cc1c(COc2cc(OCc3cccc(C#N)c3)c(CNC(C)(C)C(=O)O)cc2Cl)cccc1-c1ccncc1 , thanks.
Result: > 100 nM

Q: Same question for CC(=O)N1CCN(Cc2ccc(O)c(C(=O)/C=C/c3cccc(-c4ccccc4)c3)c2)CC1 please.
Result: > 20000 nM

Q: Same question for Cc1c(COc2cc(OCc3cccc(C#N)c3)c(CN3CC[C@@H](O)C3)cc2Cl)cccc1-c1ccc2c(c1)OCCO2 please.
Result: 14.9 nM

###

- assayed_system: Programmed cell death protein 1/Programmed cell death 1 ligand 1 (Homo sapiens)
- protocol_details: Inhibition of human PD1/PDL1 protein-protein interaction by HTRF assay
- Type: protein-complex assay
pIC50: −log10 of the molar value.
parameter_measured: pIC50

> print(dat)
                              smiles.record                            assayed.system  parameter.measured  result
1  CCN1CCN(Cc2ccc3oc(-c4cccc(-c5ccccc5)c4C)cc(=O)c3c2)CC1  Programmed cell death protein 1/Programmed cell death 1 ligand 1 (Homo sapiens)               pIC50  < 5.00

Q: Need pIC50 of Cc1c(COc2cc(OCc3cccc(C#N)c3)c(CN3C[C@H](O)[C@@H](F)C3)cc2Cl)cccc1-c1ccc2c(c1)OCCO2 , thanks.
Result: < 7.00

Q: Same question for Cc1c(COc2cc(OCc3cccc(C#N)c3)c(CN3CC(C)(O)C3)cc2Cl)cccc1-c1ccc2c(c1)OCCO2 please.
Result: 7.00 to 8.00

Q: Same question for Cc1c(COc2cc(OCc3cccc(C#N)c3)c(CNCCN(C)C)cc2Cl)cccc1-c1ccccc1 please.
Result: 7.00 to 8.00
